Target: GDP-bound KRAS wild-type protein (Homo sapiens)
Sequence (P01116 whole entry): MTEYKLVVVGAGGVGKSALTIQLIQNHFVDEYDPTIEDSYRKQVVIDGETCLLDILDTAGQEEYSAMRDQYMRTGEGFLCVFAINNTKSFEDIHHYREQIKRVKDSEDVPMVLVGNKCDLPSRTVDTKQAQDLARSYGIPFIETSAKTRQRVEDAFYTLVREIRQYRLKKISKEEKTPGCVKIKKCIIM
Test: Binding to KRAS by surface plasmon resonance (SPR), Single Cycle Kinetics
Settings: SPR Single Cycle Kinetics, GDP-bound KRAS wild-type protein, 1:1 binding model; read-out: KRAS KD
*1 amine or outer side, *2 acyl side, *3 side chain or, on linkers, in order; H or OH if unused. Where a SMILES comes first, the peptide text is derived from it. Bridges are numbered along the chain shown (N, C = ends). [ ]: non-standard residue; d: D form. The star is where a group is joined. X25 = O=C([C@H](Cc1ccc(C(F)(F)F)cc1)N(CCC(F)(F)F)[*:1])[*:2]; hPhe(3-Cl-4-CF3) = N[C@@H](CCc1ccc(C(F)(F)F)c(Cl)c1)C(=O)O; NPrPhe(4-CF3) = CCCN[C@@H](Cc1ccc(C(F)(F)F)cc1)C(=O)O; NMeGly(cPent) = CN[C@H](C(=O)O)C1CCCC1; NMeD = CN[C@@H](CC(=O)O)C(=O)O; NMeL = CN[C@@H](CC(C)C)C(=O)O; Morpholide = C1CN(*)CCO1; NMeA = CN[C@@H](C)C(=O)O; Pyrrolidide = C1CCN(*)C1; Ac5c = NC1(C(=O)O)CCCC1; Aze = O=C(O)[C@@H]1CCN1; Sar = CNCC(=O)O
attribute.measured: Kd (nM)
Lab book: enter the figure in nM, no units written.

A selection of reference data follows.
molecule | value.reported
CC[C@H](C)[C@@H]1NC(=O)[C@H](CC(C)C)N(C)C(=O)C[C@@H](C(=O)N2CCOCC2)N(C)C(=O)[C@H](C2CCCC2)N(C)C(=O)C2(CCCC2)NC(=O)[C@@H]2CCCN2C(=O)[C@H](CCc2ccc(C(F)(F)F)c(Cl)c2)NC(=O)CN(C)C(=O)[C@H](Cc2ccc(C(F)(F)F)cc2)N(CCC(F)(F)F)C(=O)[C@@H]2CCN2C(=O)[C@H](C)N(C)C1=O [PP0117] ([NMeL]I[NMeA][Aze][X25][Sar][hPhe(3-Cl-4-CF3)]P[Ac5c][NMeGly(cPent)][NMeD]-Morpholide; lactam N-11) | 0.19
CC[C@H](C)[C@@H]1NC(=O)[C@H](CC(C)C)N(C)C(=O)C[C@@H](C(=O)N2CCOCC2)N(C)C(=O)[C@H](C2CCCC2)N(C)C(=O)C2(CCC2)NC(=O)[C@@H]2CCCN2C(=O)[C@H](CCc2cc(F)c(C(F)(F)F)c(F)c2)NC(=O)CN(C)C(=O)[C@H](Cc2ccc(C(F)(F)F)cc2)N2CCCCC[C@@H](C2=O)N(C)C(=O)CN(C)C1=O | 0.85
CCCN1C(=O)CN(C)C(=O)CN(C)C(=O)[C@H]([C@@H](C)CC)NC(=O)[C@H](CC(C)C)N(C)C(=O)C[C@@H](C(=O)N2CCCC2)N(C)C(=O)[C@H](C2CCCC2)N(C)C(=O)C2(CCCC2)NC(=O)[C@@H]2CCCN2C(=O)[C@H](CCc2ccc(C(F)(F)F)c(Cl)c2)NC(=O)CN(C)C(=O)[C@@H]1Cc1ccc(C(F)(F)F)cc1 [PP0170] ([NMeL]I[Sar][Sar][NPrPhe(4-CF3)][Sar][hPhe(3-Cl-4-CF3)]P[Ac5c][NMeGly(cPent)][NMeD]-Pyrrolidide; lactam N-11) | 0.12

Form: item CCCN1C(=O)CN(C)C(=O)CNC(=O)[C@H]([C@@H](C)CC)NC(=O)[C@H](CC(C)C)N(C)C(=O)C[C@@H](C(=O)N(C)C)N(C)C(=O)[C@H](C2CCCC2)N(C)C(=O)C2(CCCC2)NC(=O)[C@@H]2CCCN2C(=O)[C@H](CCc2ccc(C(F)(F)F)c(Cl)c2)NC(=O)CN(C)C(=O)[C@@H]1Cc1ccc(C(F)(F)F)cc1 [PP0417] ([NMeL]IG[Sar][NPrPhe(4-CF3)][Sar][hPhe(3-Cl-4-CF3)]P[Ac5c][NMeGly(cPent)][NMeD]-NMe2; lactam N-11) ; test system GDP-bound KRAS wild-type protein (Homo sapiens); Kd: 0.074

Form: item "CCCN1C(=O)[C@H](C2CCCC2)N(C)C(=O)C2(CCC2)NC(=O)[C@@H]2C[C@@H](OCC)CN2C(=O)[C@H](CCc2cc(F)c(C(F)(F)F)c(F)c2)NC(=O)CN(C)C(=O)[C@H](Cc2ccc(C(F)(F)F)cc2)N2CCCCC[C@@H](C2=O)N(C)C(=O)CN(C)C(=O)[C@H]([C@@H](C)CC)NC(=O)[C@H](CC(C)C)N(C)C(=O)C[C@H]1C(=O)N1CCOCC1" ; test system GDP-bound KRAS wild-type protein (Homo sapiens); Kd: 8.5
